- tgt: DPP-4 (human recombinant) (Homo sapiens, UniProt P27487)
- Construct: purchased Sigma Aldrich D3446
- Sequence (P27487 whole entry): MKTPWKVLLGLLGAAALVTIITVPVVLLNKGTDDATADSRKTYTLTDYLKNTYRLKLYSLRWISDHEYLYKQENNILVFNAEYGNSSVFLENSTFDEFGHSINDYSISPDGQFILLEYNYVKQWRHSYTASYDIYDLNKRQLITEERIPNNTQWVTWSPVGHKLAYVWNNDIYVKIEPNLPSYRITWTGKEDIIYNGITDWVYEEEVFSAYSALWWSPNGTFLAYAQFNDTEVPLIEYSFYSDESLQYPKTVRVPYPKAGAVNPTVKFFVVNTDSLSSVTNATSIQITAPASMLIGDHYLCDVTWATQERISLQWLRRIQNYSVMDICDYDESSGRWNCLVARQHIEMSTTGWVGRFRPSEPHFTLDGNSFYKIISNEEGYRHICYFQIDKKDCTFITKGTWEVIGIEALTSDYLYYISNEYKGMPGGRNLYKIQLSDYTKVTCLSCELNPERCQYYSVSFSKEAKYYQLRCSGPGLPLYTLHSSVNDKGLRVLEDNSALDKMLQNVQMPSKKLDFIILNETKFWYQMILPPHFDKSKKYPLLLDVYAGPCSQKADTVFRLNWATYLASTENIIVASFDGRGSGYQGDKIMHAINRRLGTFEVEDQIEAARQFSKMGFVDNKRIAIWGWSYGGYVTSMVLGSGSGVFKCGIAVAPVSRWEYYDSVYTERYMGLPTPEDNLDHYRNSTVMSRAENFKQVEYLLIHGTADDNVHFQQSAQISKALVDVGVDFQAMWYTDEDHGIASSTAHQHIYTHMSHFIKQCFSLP
- assay procedure: In vitro assay for DPP-4 inhibitory activity (fluorescence, Gly-Pro-AMC);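 note: fluorescence of released AMC (excitation 360 nm, emission 460 nm) followed kinetically over 30 min at 37 °C in Tris-HCl pH 8.0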
- Type: biochemical
- settings: flavonoid 200 μM; mean ± SD, three independent experiments; read-out: % Inhibition at 200μM
property measured: inhibition at 200 µM

Completed entries (count: 2):
compound: O=C(O[C@@H]1Cc2c(O)cc(O)cc2O[C@@H]1c1cc(O)c(O)c(O)c1)c1cc(O)c(O)c(O)c1 [D3, Epigallocatechin gallate]
inhibition at 200 µM: < 10%
//
compound: COc1ccc([C@@H]2CC(=O)c3c(O)cc(O)cc3O2)cc1O
inhibition at 200 µM: < 10%

Query compound follows.
Q: Given the compound Oc1cc(O)c2c(c1)O[C@H](c1ccc(O)c(O)c1)[C@H](O)C2 [D2, Epicatechin] , what is its reported inhibition at 200 µM?
Ans: < 10%
